assay procedure: chemical genetic growth profiling, strain panel (AID 1159580);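 note: tested at 20 µM; growth read once vehicle control cultures reached saturation at 30 °C; 1 = growth at the plate median or of vehicle wells; lower values mean less growth of the strain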
condition summary: S. cerevisiae deletion strains, growth OD, locus YEL037C, strain rad23, hits give low values
About 2,000 (36%) of roughly 5,500 compounds were called active. Not shown: some 18% with an inconclusive outcome. The list shows a part of the results.
Parameter normalized growth: see the listing below.
Reply briefly: the number, and no unit.

Form: compound = `CS(=O)(=O)c1ccc([C@@H](O)[C@@H](CO)NC(=O)C(Cl)Cl)cc1` ; normalized growth = 1.02

The compound identified as COc1ccccc1OCC(O)CO (stereo not given) registered its normalized growth at 1.02

Looking up `CC1=CC(=O)c2ccccc2C1=O` , I found its normalized growth recorded as 0.994

Quick note, normalized growth for `COc1ccc([C@@H]2CC(=O)c3c(O)cc(O[C@@H]4O[C@H](CO[C@H]5O[C@@H](C)[C@H](O)[C@@H](O)[C@H]5O)[C@@H](O)[C@H](O)[C@H]4O)cc3O2)cc1O` landed at 0.991

Form field normalized growth, entry `Cc1scc2c1N(C(=O)CN1CCN(C)CC1)c1ccccc1NC2=O` : 0.957
